Species on record: Rattus norvegicus
Experiment: Open TG-GATES - Regimen: Single
Type: toxicity, organism-based, Sprague-Dawley
Design: regimen Single, gender Male, age 6 weeks
Conditions: in vivo, po, 0 mg/kg, 3 h, tissue Blood, route gavage, dose level Control
Label Criterion met when Ret is strictly below 8%; at or above that, label Criterion not met.

# Compound String, Discrete Label
rows = [
    ("Cn1cnc([N+](=O)[O-])c1Sc1ncnc2nc[nH]c12", "Criterion not met"),
    ("O=C1NC(=O)C(c2ccccc2)(c2ccccc2)N1", "Criterion not met"),
    ("O=C1CN(/N=C/c2ccc(-c3ccc([N+](=O)[O-])cc3)o2)C(O)=N1", "Criterion not met"),
    ("C=CCO", "Criterion met"),
]

----------
Species on record: Rattus norvegicus
Assay: Open TG-GATES - Regimen: Daily Repeat
Assay type: toxicity, organism-based, Sprague-Dawley
Design: regimen Daily Repeat, gender Male, age 6 weeks
Conditions: in vivo, po, 0 mg/kg, […], tissue Blood, route gavage, dose level Control, time 14 day

# Compound, APTT [s]
rows = [
    ("Cc1cccc(Nc2cc(Cl)nc(SCC(=O)O)n2)c1C", 15.5),
    ("O=P1(N(CCCl)CCCl)NCCCO1 (stereo not given) [CYCLOPHOSPHAMIDE ANHYDROUS]", 22),
    ("COc1ccc(Cl)cc1C(=O)NCCc1ccc(S(=O)(=O)NC(=O)NC2CCCCC2)cc1 [GLYBURIDE]", 21.1),
    ("Cn1cnc([N+](=O)[O-])c1Sc1ncnc2nc[nH]c12", 22.4),
    ("COc1ccc(O)c(C(C)(C)C)c1.COc1ccc(O)cc1C(C)(C)C [BUTYLATED HYDROXYANISOLE]", 16.9),
    ("C=CCO", 19.8),
    ("O=C1NC(=O)C(c2ccccc2)(c2ccccc2)N1", 21.7),
    ("CS(=O)(=O)Nc1ccc([N+](=O)[O-])cc1Oc1ccccc1 [NIMESULIDE]", 17.4),
    ("O=C1CN(/N=C/c2ccc(-c3ccc([N+](=O)[O-])cc3)o2)C(O)=N1", 17.6),
    ("Cn1c(=O)c2c(ncn2C)n(C)c1=O", 22.6),
]

----------
Consider the following molecules and their measured Plat readings.
Species on record: Rattus norvegicus
Assay: Open TG-GATES - Regimen: Daily Repeat
Type: toxicity, organism-based, Sprague-Dawley
Design: regimen Daily Repeat, gender Male, age 6 weeks
Conditions: in vivo, po, 0 mg/kg, […], tissue Blood, route gavage, dose level Control, time 28 day
Reported Metric: Plat (x10_4/uL)

# Molecule, Unit Of Measurement, Test Result
measured = [
    ("Cn1c(=O)c2c(ncn2C)n(C)c1=O [CAFFEINE]", "x10_4/uL", 102.1),
    ("CS(=O)(=O)Nc1ccc([N+](=O)[O-])cc1Oc1ccccc1 [NIMESULIDE]", "x10_4/uL", 126.5),
    ("COc1ccc(Cl)cc1C(=O)NCCc1ccc(S(=O)(=O)NC(=O)NC2CCCCC2)cc1 [GLYBURIDE]", "x10_4/uL", 100.6),
    ("Cn1cnc([N+](=O)[O-])c1Sc1ncnc2nc[nH]c12 [AZATHIOPRINE]", "x10_4/uL", 109.1),
    ("COc1ccc(O)c(C(C)(C)C)c1.COc1ccc(O)cc1C(C)(C)C [BUTYLATED HYDROXYANISOLE]", "x10_4/uL", 121),
    ("O=C1CN(/N=C/c2ccc(-c3ccc([N+](=O)[O-])cc3)o2)C(O)=N1 [DANTROLENE]", "x10_4/uL", 117),
    ("Cc1cccc(Nc2cc(Cl)nc(SCC(=O)O)n2)c1C [PIRINIXIC ACID]", "x10_4/uL", 100.6),
    ("C=CCO [ALLYL ALCOHOL]", "x10_4/uL", 111.6),
    ("O=C1NC(=O)C(c2ccccc2)(c2ccccc2)N1 [PHENYTOIN]", "x10_4/uL", 116.4),
    ("O=P1(N(CCCl)CCCl)NCCCO1 (stereo not given) [CYCLOPHOSPHAMIDE ANHYDROUS]", "x10_4/uL", 96.2),
]

----------
Consider the following molecules and their measured RBC readings.
Species on record: Rattus norvegicus
Experiment: Open TG-GATES - Regimen: Single
Type: toxicity, organism-based, Sprague-Dawley
Set-up: regimen Single, gender Male, age 6 weeks
Conditions: in vivo, po, 0 mg/kg, 9 h, tissue Blood, route gavage, dose level Control
Reported Metric: RBC (x10_4/ul)

# Molecule, Unit Of Measurement, Test Result
measured = [
    ("C=CCO", "x10_4/ul", 639.8),
    ("COc1ccc(O)c(C(C)(C)C)c1.COc1ccc(O)cc1C(C)(C)C [BUTYLATED HYDROXYANISOLE]", "x10_4/ul", 612),
    ("CS(=O)(=O)Nc1ccc([N+](=O)[O-])cc1Oc1ccccc1 [NIMESULIDE]", "x10_4/ul", 614),
    ("O=C1CN(/N=C/c2ccc(-c3ccc([N+](=O)[O-])cc3)o2)C(O)=N1", "x10_4/ul", 605.8),
    ("S=C=Nc1cccc2ccccc12 [1-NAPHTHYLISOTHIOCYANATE]", "x10_4/ul", 612),
    ("COc1ccc(Cl)cc1C(=O)NCCc1ccc(S(=O)(=O)NC(=O)NC2CCCCC2)cc1 [GLYBURIDE]", "x10_4/ul", 625.4),
    ("O=C1NC(=O)C(c2ccccc2)(c2ccccc2)N1", "x10_4/ul", 663.4),
    ("Cn1cnc([N+](=O)[O-])c1Sc1ncnc2nc[nH]c12", "x10_4/ul", 582),
    ("Cc1cnc(NC(=O)C2=C(O)c3ccccc3S(=O)(=O)N2C)s1", "x10_4/ul", 610.8),
    ("Cc1cccc(Nc2cc(Cl)nc(SCC(=O)O)n2)c1C", "x10_4/ul", 632.8),
]

----------
Organism: Rattus norvegicus
Test: Open TG-GATES - Regimen: Single
Type: toxicity, organism-based, Sprague-Dawley
Design: regimen Single, gender Male, age 6 weeks
Conditions: in vivo, po, 0 mg/kg, 24 h, tissue Plasma, route gavage, dose level Control

# Compound, Unit Of Measurement, TC
data = [
    ("Cc1cccc(Nc2cc(Cl)nc(SCC(=O)O)n2)c1C", "mg/dL", 79.8),
    ("CS(=O)(=O)Nc1ccc([N+](=O)[O-])cc1Oc1ccccc1 [NIMESULIDE]", "mg/dL", 79.8),
    ("S=C=Nc1cccc2ccccc12 [1-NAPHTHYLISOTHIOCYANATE]", "mg/dL", 70.8),
    ("O=C1CN(/N=C/c2ccc(-c3ccc([N+](=O)[O-])cc3)o2)C(O)=N1", "mg/dL", 73.8),
    ("C=CCO", "mg/dL", 74.2),
    ("Cn1cnc([N+](=O)[O-])c1Sc1ncnc2nc[nH]c12", "mg/dL", 86.8),
    ("O=C1NC(=O)C(c2ccccc2)(c2ccccc2)N1", "mg/dL", 74.8),
    ("COc1ccc(Cl)cc1C(=O)NCCc1ccc(S(=O)(=O)NC(=O)NC2CCCCC2)cc1 [GLYBURIDE]", "mg/dL", 73.2),
    ("COc1ccc(O)c(C(C)(C)C)c1.COc1ccc(O)cc1C(C)(C)C [BUTYLATED HYDROXYANISOLE]", "mg/dL", 77.6),
    ("Cc1cnc(NC(=O)C2=C(O)c3ccccc3S(=O)(=O)N2C)s1", "mg/dL", 74.2),
]

----------
Species on record: Rattus norvegicus
Test: Open TG-GATES - Regimen: Daily Repeat
Assay type: toxicity, organism-based, Sprague-Dawley
Design: regimen Daily Repeat, gender Male, age 6 weeks
Settings: in vivo, po, 0 mg/kg, […], tissue Plasma, route gavage, dose level Control, time 14 day
Consider the following compounds and their measured TP readings.

# Compound, TP / g/dL
rows = [
    ("Cn1c(=O)c2c(ncn2C)n(C)c1=O [CAFFEINE]", 5.8),
    ("COc1ccc(Cl)cc1C(=O)NCCc1ccc(S(=O)(=O)NC(=O)NC2CCCCC2)cc1 [GLYBURIDE]", 6),
    ("O=C1NC(=O)C(c2ccccc2)(c2ccccc2)N1 [PHENYTOIN]", 5.6),
    ("O=P1(N(CCCl)CCCl)NCCCO1 (stereo not given) [CYCLOPHOSPHAMIDE ANHYDROUS]", 5.7),
    ("O=C1CN(/N=C/c2ccc(-c3ccc([N+](=O)[O-])cc3)o2)C(O)=N1 [DANTROLENE]", 5.9),
]

----------
Consider the following compounds and their measured Fbg readings.
Species on record: Rattus norvegicus
Experiment: Open TG-GATES - Regimen: Daily Repeat
Type: toxicity, organism-based, Sprague-Dawley
Parameters: regimen Daily Repeat, gender Male, age 6 weeks
Conditions: in vivo, po, 0 mg/kg, […], tissue Blood, route gavage, dose level Control, time 28 day

# Compound, Fbg, mg/dL
rows = [
    ("C=CCO", 220.6),
    ("Cn1c(=O)c2c(ncn2C)n(C)c1=O", 317),
    ("O=C1NC(=O)C(c2ccccc2)(c2ccccc2)N1", 307.4),
    ("COc1ccc(O)c(C(C)(C)C)c1.COc1ccc(O)cc1C(C)(C)C [BUTYLATED HYDROXYANISOLE]", 262.8),
    ("CS(=O)(=O)Nc1ccc([N+](=O)[O-])cc1Oc1ccccc1 [NIMESULIDE]", 213.8),
    ("O=C1CN(/N=C/c2ccc(-c3ccc([N+](=O)[O-])cc3)o2)C(O)=N1", 217.6),
    ("Cc1cnc(NC(=O)C2=C(O)c3ccccc3S(=O)(=O)N2C)s1", 207.2),
    ("O=P1(N(CCCl)CCCl)NCCCO1 (stereo unspecified) [CYCLOPHOSPHAMIDE ANHYDROUS]", 303.8),
    ("COc1ccc(Cl)cc1C(=O)NCCc1ccc(S(=O)(=O)NC(=O)NC2CCCCC2)cc1 [GLYBURIDE]", 211),
    ("Cn1cnc([N+](=O)[O-])c1Sc1ncnc2nc[nH]c12", 314.8),
    ("Cc1cccc(Nc2cc(Cl)nc(SCC(=O)O)n2)c1C", 284.6),
]
